Test system: Bmi-1
experimental_protocol: Sandwich ELISA Assay (Bmi-1 ELISA) in HT-1080 cells
Assay type: cell-based
// reported EC50 per item

# EC50 measured on Bmi-1 for item FC(F)(F)c1nc2ccccn2c1-c1nccc(Nc2ccc(Cl)cc2)n1 [Cpd 8] = 100 to 3000 nM

Others:
# EC50 measured on Bmi-1 for item Cc1nc2cc(F)ccc2n1-c1nc(N)c(F)c(Nc2ccc(OC(F)(F)F)cc2)n1 [Cpd 283] = 100 to 3000 nM

---

System: Bmi-1
experimental_protocol: Sandwich ELISA Assay (Bmi-1 ELISA) in HT-1080 cells
Assay type: cell-based
pEC50: −log10 of the molar value.
readout_name: pEC50

So, Cc1nc2ccc(F)cc2n1-c1nc(N)c(F)c(Nc2ccc(C(F)(F)F)nc2)n1 ? Its pEC50 was 7.00 to 8.00

So, Cc1nc2cc(Cl)ccc2n1-c1nc(N)cc(Nc2ccc(OC(F)F)cc2)n1 ? Its pEC50 was 5.52 to 7.00

So, CCc1nc2ccccc2n1-c1nc(N)c(F)c(Nc2ccc(OC(F)F)cc2)n1 ? Its pEC50 was 8.00 to 9.00

So, Cc1ccc(Nc2ccnc(-c3c(C(F)(F)F)nc4ccccn34)n2)cc1Cl ? Its pEC50 was 7.00 to 8.00

So, Cc1nc2ccc(Cl)cc2n1-c1nc(N)cc(Nc2ccc(C(F)(F)F)c(F)c2)n1 ? Its pEC50 was 5.52 to 7.00

Others:
So, CCc1nc2cc(F)ccc2n1-c1nc(N)c(F)c(Nc2ccc(C(F)(F)F)cc2)n1 ? Its pEC50 was 7.00 to 8.00

So, Cc1nc2ccccc2n1-c1nc(N)cc(Nc2ccc([N+](=O)[O-])cc2)n1 ? Its pEC50 was 5.52 to 7.00

So, CCc1nc2ccccc2n1-c1nc(N)cc(Nc2ccc(C(F)(F)F)cc2)n1 ? Its pEC50 was 7.00 to 8.00

So, Cc1nc2cc(C#N)ccc2n1-c1nc(N)c(F)c(Nc2ccc(OC(F)F)cc2)n1 ? Its pEC50 was 5.52 to 7.00

So, CCc1ccc2nc(C)n(-c3nc(N)cc(Nc4ccc(C(F)(F)F)cc4)n3)c2c1 ? Its pEC50 was 5.52 to 7.00

So, FC(F)(F)Oc1ccc(Nc2ccnc(-c3c(C(F)(F)F)nc4ccc(Cl)cn34)n2)cc1 ? Its pEC50 was 5.52 to 7.00

So, Cc1ccc2nc(C)n(-c3nc(N)cc(Nc4ccc(C(F)(F)F)cc4)n3)c2c1 ? Its pEC50 was 7.00 to 8.00

So, Cc1nc2ccc(F)cc2n1-c1nc(N)c(F)c(Nc2cccc(Cl)c2)n1 ? Its pEC50 was 5.52 to 7.00

So, Cc1nc2cc(F)ccc2n1-c1nc(N)c(F)c(Nc2ccc(Cl)c(F)c2)n1 ? Its pEC50 was 5.52 to 7.00

So, Cc1nc2ccc(F)cc2n1-c1nc(N)c(F)c(Nc2ccc(OC(F)F)cc2)n1 ? Its pEC50 was 7.00 to 8.00

---

System: Bmi-1
experimental_protocol: Sandwich ELISA Assay (Bmi-1 ELISA) in HT-1080 cells
Type: cell-based
// reported EC50 per item

So, Cc1nc2ccccc2n1-c1nccc(Nc2ccc(OC(F)F)cc2)n1 [Cpd 61] ? Its EC50 was 100 to 3000 nM

So, Cc1nc2ccc(Cl)cc2n1-c1nc(N)c(F)c(Nc2ccc(OC(F)F)cc2)n1 [Cpd 161] ? Its EC50 was 10 to 100 nM

So, Nc1cc(Nc2ccc(OC(F)F)c(F)c2)nc(-c2c(C3CC3)nc3ccc(F)cn23)n1 [Cpd 75] ? Its EC50 was 100 to 3000 nM

So, Cc1nc2ccccc2n1-c1nccc(Nc2ccc(C(F)(F)F)cc2)n1 [Cpd 41] ? Its EC50 was 100 to 3000 nM

So, CCc1nc2ccccc2n1-c1nc(N)c(F)c(Nc2ccc(OC(F)(F)F)cc2)n1 [Cpd 272] ? Its EC50 was 10 to 100 nM

So, Cc1nc2cc(F)c(F)cc2n1-c1nc(N)cc(Nc2ccc(OC(F)F)cc2)n1 [Cpd 102] ? Its EC50 was 10 to 100 nM

So, Nc1cc(Nc2ccc(OC(F)F)cc2)nc(-n2c(C(F)F)nc3ccc(F)cc32)n1 [Cpd 145] ? Its EC50 was 1 to 10 nM

So, Cc1nc2ccccn2c1-c1nccc(Nc2ccc3c(c2)OCCO3)n1 [Cpd 2] ? Its EC50 was 100 to 3000 nM

Others:
So, Cc1nc2ccccc2n1-c1nc(N)c(F)c(Nc2ccc(Cl)cc2)n1 [Cpd 201] ? Its EC50 was 10 to 100 nM

So, Cc1ccc(Nc2ccnc(-c3c(C)nc4ccc(C(F)(F)F)cn34)n2)cc1 [Cpd 20] ? Its EC50 was 100 to 3000 nM

So, Cn1c(C(F)(F)F)c(-c2nccc(Nc3ccc(OC(F)F)cc3)n2)c2cc(Cl)ccc21 [Cpd 24] ? Its EC50 was 100 to 3000 nM

So, Cc1ccc(Nc2nc(-c3c(C)nc4ccc(F)cn34)nc(N)c2F)cc1 [Cpd 253] ? Its EC50 was 1 to 10 nM

So, FC(F)(F)c1ccc(Nc2ccnc(-c3c(C(F)(F)F)nc4ccc(Cl)cn34)n2)cc1 [Cpd 13] ? Its EC50 was 100 to 3000 nM

So, Cc1nn2ccccc2c1-c1nc(N)c(F)c(Nc2ccc(OC(F)F)cc2)n1 [Cpd 173] ? Its EC50 was 100 to 3000 nM

So, FC(F)(F)c1ccc(Nc2ccnc(-c3cnc4ccccn34)n2)cc1 [Cpd 118] ? Its EC50 was 100 to 3000 nM

Entry source: patent US11180483B2
